Measured pH of individual entries
Procedure Summary: pH of chemical solution
Type: physicochemical
Test Parameters: Table 2; chemical solution
Output: the number by itself.

Known results for compounds:
CCN(CC)CCO [#1575, 2-Diethylaminoethanol]	12.8
CCCCCCCCCCCC[N+](C)(C)C [#1021, Dodecyltrimethylammonium chloride]	7.5

[in] Would you mind telling me what pH value was observed for OCCN1CC1 [#1061, 1-(2-Hydroxyethyl)ethyleneimine] ?
[out] 13.1

----------
Procedure Summary: Absorbance of chemical solution at 400 nm (OD400)
Assay type: physicochemical
Test Parameters: Table 3
Where a name gives a salt, the structure may show the parent alone.
Readout Name: OD400
Output: the number by itself.

Known results for molecules:
CN(C)CCOC(c1ccccc1)c1ccccc1.Cl [#0909, Diphanhydramine hydrochloride]	0.048
CCCC[N+](CCCC)(CCCC)Cc1ccccc1.[Cl-] [#0307, Benzyltributylammonium chloride]	0.048
NCCCNCCCN [#0785, 3,3′-Diaminodipropylamine]	0.05
Cc1cccc(C)c1NC1=NCCCS1.Cl [#1612, Xylazine hydrochloride]	0.063
CNC(=O)c1cccnc1 [#1283, N-Methylnicotinamide]	0.003

[in] Would you mind telling me what OD400 value was observed for NC[C@H](O)[C@@H](O)[C@H](O)[C@H](O)CO [#0956, D-Glucoomine (FocusClear ™), reference compound] ?
[out] 0.280

[in] Would you mind telling me what OD400 value was observed for C1CCC2=[N+](CC1)CCCN2.O=C1N=C([O-])c2ccccc21 [#1181, Phtalimide DBU salt] ?
[out] 0.049

[in] Would you mind telling me what OD400 value was observed for CN(C)CCSSCCN(C)C [#0295, dihydrochloride] ?
[out] 0.047

[in] Would you mind telling me what OD400 value was observed for Cc1cc(=O)n(-c2ccccc2)n1C [#0640, 2,3-Dimethyl-1-phenyl-5-pyrazolone] ?
[out] 0.048
